Entries and their measured residual activity follow.
- testedSystem: PRKX (human)
- test: radiometric filter-binding kinase assay, Kinase HotSpot
- assayContext: compound 0.5 µM; ATP 10 µM
Express your answer in %, writing the number without its unit.

1. Cc1ccc(NC2=CC(=O)c3sc(C)nc3C2=O)cc1    96.8
2. COc1cc2ncnc(Nc3cccc(Cl)c3)c2cc1OC    92.5
3. CC#CC(=O)Nc1cc2c(Nc3ccc(F)c(Cl)c3)ncnc2cn1    103
4. COc1ccc2c(c[n+](C)c3c4cc5c(cc4ccc23)OCO5)c1OC    95.1

For the molecule shown here, CCN(CC)C(=O)c1ccc(Nc2nc(OCC3CCCCC3)c3nc[nH]c3n2)cc1 , give the reported residual activity.
93.4

Data request, read-out residual activity, for O=C(Nc1cccc(Nc2nccc(Nc3cccc(C(F)(F)F)c3)n2)c1)C1CC1
94.6

---

# maps each entry to its residual activity
- testedSystem: MAP3K5 (human) (UniProt Q99683)
- Sequence (Q99683 whole entry, looked up): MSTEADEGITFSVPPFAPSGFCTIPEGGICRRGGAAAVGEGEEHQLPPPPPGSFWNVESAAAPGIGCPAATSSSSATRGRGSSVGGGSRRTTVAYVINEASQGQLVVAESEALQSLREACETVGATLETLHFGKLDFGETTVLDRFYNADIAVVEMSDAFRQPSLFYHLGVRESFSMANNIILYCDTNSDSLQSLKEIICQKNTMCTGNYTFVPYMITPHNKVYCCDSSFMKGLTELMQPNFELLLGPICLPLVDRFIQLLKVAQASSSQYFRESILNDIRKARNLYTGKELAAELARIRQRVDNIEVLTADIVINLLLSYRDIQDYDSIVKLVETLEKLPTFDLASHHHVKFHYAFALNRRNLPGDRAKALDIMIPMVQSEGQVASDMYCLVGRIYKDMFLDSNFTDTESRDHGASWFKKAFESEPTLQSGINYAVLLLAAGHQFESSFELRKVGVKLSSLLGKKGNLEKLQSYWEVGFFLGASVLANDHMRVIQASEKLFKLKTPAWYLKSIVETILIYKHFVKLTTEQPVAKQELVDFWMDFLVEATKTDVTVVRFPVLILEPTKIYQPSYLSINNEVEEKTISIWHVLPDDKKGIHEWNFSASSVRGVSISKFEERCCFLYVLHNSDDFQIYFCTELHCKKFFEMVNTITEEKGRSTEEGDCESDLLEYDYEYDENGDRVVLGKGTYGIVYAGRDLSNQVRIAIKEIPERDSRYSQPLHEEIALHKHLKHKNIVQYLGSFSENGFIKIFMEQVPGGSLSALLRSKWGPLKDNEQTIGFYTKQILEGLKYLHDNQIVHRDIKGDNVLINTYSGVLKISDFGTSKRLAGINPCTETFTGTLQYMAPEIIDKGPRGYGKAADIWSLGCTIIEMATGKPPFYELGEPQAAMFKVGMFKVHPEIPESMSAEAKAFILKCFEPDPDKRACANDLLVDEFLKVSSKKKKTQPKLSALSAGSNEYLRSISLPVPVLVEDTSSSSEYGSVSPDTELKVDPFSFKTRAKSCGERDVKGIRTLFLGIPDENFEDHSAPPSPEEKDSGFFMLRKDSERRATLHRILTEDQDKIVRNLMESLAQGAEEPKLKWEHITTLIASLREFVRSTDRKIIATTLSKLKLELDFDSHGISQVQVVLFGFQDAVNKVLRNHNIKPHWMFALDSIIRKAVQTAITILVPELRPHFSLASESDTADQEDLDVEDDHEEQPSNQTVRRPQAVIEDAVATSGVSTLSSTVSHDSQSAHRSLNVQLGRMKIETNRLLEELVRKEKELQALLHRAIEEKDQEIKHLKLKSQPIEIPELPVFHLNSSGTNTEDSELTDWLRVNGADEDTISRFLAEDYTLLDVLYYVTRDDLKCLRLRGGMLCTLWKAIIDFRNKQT
- test: radiometric filter-binding kinase assay, Kinase HotSpot
- assayContext: compound 0.5 µM; ATP 10 µM
Write the quantity with the unit trailing the number.

Illustrative cases are given below, each with its answer.
1) CCN(CC)CCNC(=O)c1c(C)[nH]c(/C=C2\C(=O)Nc3ccc(F)cc32)c1C    100%
2) O=S(=O)(c1cccc2cnccc12)N1CCCNCC1    88.7%
3) COc1ccc(COc2ccc(Cc3cnc(N)nc3N)cc2OC)cc1    89%
4) Cc1ccc(Nc2nccc(N(C)c3ccc4c(C)n(C)nc4c3)n2)cc1S(N)(=O)=O    102%
5) CC[n+]1c(/C=C/N(C)c2ccccc2)n(-c2ccccc2)c2ccc(-c3nc4ccccc4s3)cc21    100%

Value lookup for residual activity; key = CNC(=O)c1cc(Oc2ccc(NC(=O)Nc3ccc(Cl)c(C(F)(F)F)c3)cc2)ccn1
103%

What measured residual activity goes with O=C1Nc2ccc(Cl)cc2/C1=C/c1cc(Cl)c(O)c(Cl)c1 ?
106%

Find the recorded residual activity belonging to Oc1cccc(-c2nc(N3CCOCC3)c3oc4ncccc4c3n2)c1 and report it.
101%

---

Documented residual activity across a set of compounds
- testedSystem: UniProt Q86UE8
- Sequence (Q86UE8 whole entry, looked up): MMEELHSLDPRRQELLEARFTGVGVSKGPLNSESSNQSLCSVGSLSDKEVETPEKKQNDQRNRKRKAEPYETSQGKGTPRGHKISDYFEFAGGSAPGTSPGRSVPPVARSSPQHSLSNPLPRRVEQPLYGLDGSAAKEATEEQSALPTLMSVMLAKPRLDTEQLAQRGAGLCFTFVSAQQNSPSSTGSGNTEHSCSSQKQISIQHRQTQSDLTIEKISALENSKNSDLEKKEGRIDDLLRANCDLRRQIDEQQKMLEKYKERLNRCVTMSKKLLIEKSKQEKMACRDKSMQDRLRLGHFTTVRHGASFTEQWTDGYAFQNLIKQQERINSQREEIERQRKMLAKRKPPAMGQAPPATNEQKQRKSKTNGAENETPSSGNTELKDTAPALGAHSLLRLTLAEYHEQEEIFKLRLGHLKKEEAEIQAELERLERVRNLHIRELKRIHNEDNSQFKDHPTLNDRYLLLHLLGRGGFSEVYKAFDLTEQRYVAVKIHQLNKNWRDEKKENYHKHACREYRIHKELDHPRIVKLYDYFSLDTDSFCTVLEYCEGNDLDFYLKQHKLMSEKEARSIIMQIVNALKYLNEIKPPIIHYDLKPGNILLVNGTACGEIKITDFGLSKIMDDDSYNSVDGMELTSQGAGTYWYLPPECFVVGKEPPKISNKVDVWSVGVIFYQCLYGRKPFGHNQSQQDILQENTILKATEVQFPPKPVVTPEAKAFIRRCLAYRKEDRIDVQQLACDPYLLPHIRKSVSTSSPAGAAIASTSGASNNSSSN
- test: radiometric filter-binding kinase assay, Kinase HotSpot
- assayContext: compound 0.5 µM; ATP 10 µM
For clarity, give the value followed by its unit.

Recorded results for 4 compounds are shown here.
1) CNC(=O)c1cc(Oc2ccc(NC(=O)Nc3ccc(Cl)c(C(F)(F)F)c3)cc2)ccn1    84.8%
2) CCOC(=O)c1c(C)[nH]c(/C=C2\C(=O)Nc3ccccc32)c1C    96.5%
3) Nc1ncnc2[nH]nc(Nc3ccc(F)cc3)c12    79%
4) c1ccc(-c2n[nH]cc2-c2ccnc3ccccc23)nc1    98.6%

Any idea what its residual activity is? The compound is O=C1Nc2ccc(Cl)cc2/C1=C/c1cc(Cl)c(O)c(Cl)c1
105%

Which residual activity value belongs to N#CC(C#N)=C(N)/C(C#N)=C/c1ccc(O)cc1 ?
89.4%

---

Here, each record is paired with measured residual activity data.
- testedSystem: MAP3K14 (human)
- test: radiometric filter-binding kinase assay, Kinase HotSpot
- assayContext: compound 0.5 µM; ATP 10 µM
Answer format: numeric, % implied, no suffix.

1. CO[C@H]1CC2CC[C@@H](C)[C@@](O)(O2)C(=O)C(=O)N2CCCC[C@H]2C(=O)OC([C@H](C)C[C@@H]2CC[C@@H](O)[C@H](OC)C2)CC(=O)[C@H](C)/C=C(\C)[C@@H](O)[C@@H](OC)C(=O)[C@H](C)C[C@H](C)/C=C/C=C/C=C/1C (stereo partly specified)    105
2. Nc1ncnc2[nH]nc(Nc3ccc(F)cc3)c12    111
3. CNc1cc2c(Nc3cccc(Br)c3)ncnc2cn1    126
4. CC(C)N(CCC(=O)c1ccc2ccccc2c1)Cc1ccccc1    117
5. CCN(CC)C(=O)c1ccc(Nc2nc(OCC3CCCCC3)c3nc[nH]c3n2)cc1    132
6. COc1ccc(COc2ccc(Cc3cnc(N)nc3N)cc2OC)cc1    81.8
7. CC#CC(=O)Nc1cc2c(Nc3ccc(F)c(Cl)c3)ncnc2cn1    80.4
8. CC[n+]1c(/C=C/N(C)c2ccccc2)n(-c2ccccc2)c2ccc(-c3nc4ccccc4s3)cc21    96

Name the reported residual activity value associated with the molecule O=C1NC(=O)/C(=C/c2ccc3c(c2)OC(F)(F)O3)S1
106

// query residual activity value for entry c1ccc(-c2n[nH]c3c2oc2ccccc23)cc1
71.8

Need residual activity of CCCC(=O)Oc1ccc2[nH]c(C(=O)c3cc4ccccc4[nH]3)cc2c1 , thanks.
109

Item under review: Cc1ccc(S(=O)(=O)/C=C/C#N)cc1 . Reported residual activity?
103

Bench note: what residual activity did c1ccc(-c2n[nH]cc2-c2ccnc3ccccc23)nc1 show?
116

---

residual activity values for the compounds below.
- testedSystem: PRKACG (human) (UniProt P22612)
- test: radiometric filter-binding kinase assay, Kinase HotSpot
- assayContext: compound 0.5 µM; ATP 10 µM
Write it as a number; the unit % goes unstated.

In the examples that follow, each entry is paired with its recorded residual activity.
1) COc1cc2ncnc(Nc3cccc(Cl)c3)c2cc1OC    87.9
2) CCC(=O)Nc1ccc2ncnc(Nc3cccc(Br)c3)c2c1    95.5

# context switch: different compound, same residual activity
Any idea what its residual activity is? The compound is O=C1NC(=O)c2c1c1c3ccccc3n3c1c1c2c2ccccc2n1C1CCC3O1
39.8

---

- testedSystem: AXL (human) (UniProt P30530)
- Sequence (P30530 whole entry, looked up): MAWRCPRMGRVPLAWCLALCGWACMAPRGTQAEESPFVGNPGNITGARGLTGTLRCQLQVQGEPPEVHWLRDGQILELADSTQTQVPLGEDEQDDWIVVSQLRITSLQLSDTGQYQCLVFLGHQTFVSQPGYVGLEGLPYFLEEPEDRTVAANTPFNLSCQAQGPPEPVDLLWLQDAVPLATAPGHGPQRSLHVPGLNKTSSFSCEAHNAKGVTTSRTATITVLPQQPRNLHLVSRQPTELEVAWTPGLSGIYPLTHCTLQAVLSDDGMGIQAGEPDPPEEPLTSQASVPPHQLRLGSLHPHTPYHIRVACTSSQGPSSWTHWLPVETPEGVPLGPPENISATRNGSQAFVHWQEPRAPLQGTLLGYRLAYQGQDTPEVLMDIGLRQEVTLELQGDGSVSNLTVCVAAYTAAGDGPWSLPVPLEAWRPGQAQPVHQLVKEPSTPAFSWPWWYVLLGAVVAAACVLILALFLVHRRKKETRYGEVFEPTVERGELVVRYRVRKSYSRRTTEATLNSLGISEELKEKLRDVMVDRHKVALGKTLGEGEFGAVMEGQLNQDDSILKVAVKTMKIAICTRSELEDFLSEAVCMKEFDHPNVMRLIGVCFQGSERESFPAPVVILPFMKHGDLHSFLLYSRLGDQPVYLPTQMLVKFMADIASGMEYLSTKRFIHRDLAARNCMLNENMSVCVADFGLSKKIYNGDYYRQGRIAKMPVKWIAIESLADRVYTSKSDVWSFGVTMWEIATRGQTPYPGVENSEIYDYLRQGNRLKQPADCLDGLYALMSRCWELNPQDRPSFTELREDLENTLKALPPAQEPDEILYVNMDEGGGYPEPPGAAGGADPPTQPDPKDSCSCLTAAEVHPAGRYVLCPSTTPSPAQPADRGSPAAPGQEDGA
- test: radiometric filter-binding kinase assay, Kinase HotSpot
- assayContext: compound 0.5 µM; ATP 10 µM
endpointName: residual activity (%)
Give the value in % but do not write % after it.

These recorded examples may help you get a feel for the data.
1) O=C1NC(=O)C(c2cn(CCCn3ccnc3)c3ccccc23)=C1Nc1ccccc1    98.8
2) Nc1ncnc2[nH]nc(Nc3ccc(F)cc3)c12    45.4
3) O=S(=O)(c1cccc2cnccc12)N1CCCNCC1    97.2

Which measured residual activity value corresponds to Cc1ccc(NC2=CC(=O)c3sc(C)nc3C2=O)cc1 ?
97

Which residual activity reading was recorded for the compound Nc1ncnc2c1c(-c1ccc(Oc3ccccc3)cc1)cn2C1CCCC1 ?
113

---

- testedSystem: CDK1 CCNA2 (human) (UniProt P06493+P20248)
- Sequence (P06493 whole entry, looked up): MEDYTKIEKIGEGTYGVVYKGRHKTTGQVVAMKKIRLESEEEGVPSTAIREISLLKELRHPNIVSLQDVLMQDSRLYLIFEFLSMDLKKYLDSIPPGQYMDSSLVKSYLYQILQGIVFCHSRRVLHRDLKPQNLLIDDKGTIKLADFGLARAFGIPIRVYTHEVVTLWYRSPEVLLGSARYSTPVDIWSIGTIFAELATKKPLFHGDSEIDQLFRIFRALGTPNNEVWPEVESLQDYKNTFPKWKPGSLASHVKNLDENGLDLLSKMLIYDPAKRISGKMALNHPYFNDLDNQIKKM
- Sequence (P20248 whole entry, looked up): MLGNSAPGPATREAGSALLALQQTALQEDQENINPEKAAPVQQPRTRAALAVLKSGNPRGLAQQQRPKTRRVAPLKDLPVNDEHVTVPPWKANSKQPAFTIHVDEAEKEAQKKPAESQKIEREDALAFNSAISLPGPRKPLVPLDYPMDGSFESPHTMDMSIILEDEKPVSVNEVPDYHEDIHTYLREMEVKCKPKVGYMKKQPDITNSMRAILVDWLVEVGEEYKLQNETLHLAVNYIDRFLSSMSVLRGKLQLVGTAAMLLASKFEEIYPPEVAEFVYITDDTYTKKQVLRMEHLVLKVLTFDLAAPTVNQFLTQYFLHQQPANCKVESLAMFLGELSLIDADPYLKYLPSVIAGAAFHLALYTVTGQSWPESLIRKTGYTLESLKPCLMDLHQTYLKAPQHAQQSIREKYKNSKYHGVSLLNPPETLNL
- test: radiometric filter-binding kinase assay, Kinase HotSpot
- assayContext: compound 0.5 µM; ATP 10 µM
Listing: residual activity of selected compounds
Entry rule: numbers only, all in %.

Recorded results for 4 compounds are shown here.
1) Nc1ncnc2[nH]nc(Nc3ccc(F)cc3)c12    93
2) CNC(=O)c1cc(Oc2ccc(NC(=O)Nc3ccc(Cl)c(C(F)(F)F)c3)cc2)ccn1    100
3) CCOC(=O)c1c(C)[nH]c(/C=C2\C(=O)Nc3ccccc32)c1C    96.3
4) CC(C)N(CCC(=O)c1ccc2ccccc2c1)Cc1ccccc1    92.9

# context switch: different compound, same residual activity
Look at this compound and give its reported residual activity. CCN(CC)CCNC(=O)c1c(C)[nH]c(/C=C2\C(=O)Nc3ccc(F)cc32)c1C
98.4

---

- testedSystem: EPHA4 (human) (UniProt P54764)
- Sequence (P54764 whole entry, looked up): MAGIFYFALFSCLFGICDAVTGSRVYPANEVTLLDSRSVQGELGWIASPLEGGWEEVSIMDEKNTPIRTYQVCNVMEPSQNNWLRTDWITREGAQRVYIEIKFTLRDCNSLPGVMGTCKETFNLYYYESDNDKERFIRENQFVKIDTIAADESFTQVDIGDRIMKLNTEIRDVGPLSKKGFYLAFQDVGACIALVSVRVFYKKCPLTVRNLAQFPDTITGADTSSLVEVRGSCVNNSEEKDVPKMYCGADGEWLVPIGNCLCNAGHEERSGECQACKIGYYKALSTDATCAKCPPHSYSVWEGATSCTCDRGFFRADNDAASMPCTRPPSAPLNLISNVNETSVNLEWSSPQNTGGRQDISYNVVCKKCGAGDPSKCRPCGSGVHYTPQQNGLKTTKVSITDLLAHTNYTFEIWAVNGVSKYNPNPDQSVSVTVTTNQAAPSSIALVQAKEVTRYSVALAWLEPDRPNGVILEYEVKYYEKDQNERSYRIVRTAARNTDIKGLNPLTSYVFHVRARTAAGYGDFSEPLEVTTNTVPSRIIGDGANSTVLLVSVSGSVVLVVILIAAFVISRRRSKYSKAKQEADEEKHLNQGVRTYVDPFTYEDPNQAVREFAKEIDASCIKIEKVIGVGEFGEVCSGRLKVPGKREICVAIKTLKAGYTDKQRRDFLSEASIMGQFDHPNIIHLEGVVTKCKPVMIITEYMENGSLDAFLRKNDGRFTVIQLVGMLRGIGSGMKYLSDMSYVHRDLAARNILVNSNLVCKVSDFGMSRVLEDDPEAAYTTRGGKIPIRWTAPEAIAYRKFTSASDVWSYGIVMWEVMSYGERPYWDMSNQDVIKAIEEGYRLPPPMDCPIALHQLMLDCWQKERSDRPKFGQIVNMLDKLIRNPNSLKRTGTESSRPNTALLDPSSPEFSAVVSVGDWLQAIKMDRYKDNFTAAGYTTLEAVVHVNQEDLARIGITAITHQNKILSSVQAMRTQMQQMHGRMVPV
- test: radiometric filter-binding kinase assay, Kinase HotSpot
- assayContext: compound 0.5 µM; ATP 10 µM
endpointName: residual activity
Entry format: amount then unit.

Known results for molecules:
1) O=C1NC(=O)c2c1c1c3ccccc3n3c1c1c2c2ccccc2n1C1CCC3O1    91.4%
2) c1ccc(-c2n[nH]cc2-c2ccnc3ccccc23)nc1    98%
3) CC(=O)c1ccc(N2CCOCC2)cc1O    101%

Entry O=C1NC(=O)C(c2cn(CCCn3ccnc3)c3ccccc23)=C1Nc1ccccc1 : reported residual activity = ?
111%

So what's the measured residual activity for this one? N#CC(C#N)=C(N)/C(C#N)=C/c1ccc(O)cc1
96%

Returns the measured residual activity for the input molecule. Input: c1ccc(-c2n[nH]c3c2oc2ccccc23)cc1
95.5%

Quick one: residual activity of CCC(=O)Nc1ccc2ncnc(Nc3cccc(Br)c3)c2c1 ?
94.3%

---

- testedSystem: SGK3 (human)
- test: radiometric filter-binding kinase assay, Kinase HotSpot
- assayContext: compound 0.5 µM; ATP 10 µM
Measured residual activity accompanies every entry in the list below.
Dear colleague, please return just the value in %, with no unit written.

1. Nc1ccc2ncnc(NCCc3ccc(Oc4ccccc4)cc3)c2c1    106

Item under review: Cc1ccc(Nc2nccc(N(C)c3ccc4c(C)n(C)nc4c3)n2)cc1S(N)(=O)=O . Reported residual activity?
97.5

Need residual activity of O=c1cc(N2CCOCC2)oc2c1ccc1ccccc12 , thanks.
106

Quick one: residual activity of CCOC(=O)c1c(C)[nH]c(/C=C2\C(=O)Nc3ccccc32)c1C ?
88.1

// residual activity lookup, key: N#C/C(=C(/N)Sc1ccc(N)cc1)c1ccccc1C(F)(F)F
105
